Endpoint Label: IC50 (µM)
Provide only the numeric value, understood in µM.

Inquiry: Please provide the recorded IC50 for C=CC(=O)N1CCC([C@@H]2CCNc3c(C(N)=O)c(-c4ccc(Oc5ccccc5)cc4)nn32)CC1 [zanubrutinib] , tested on CYP2D6 (Homo sapiens).
Sequence (P10635 whole entry): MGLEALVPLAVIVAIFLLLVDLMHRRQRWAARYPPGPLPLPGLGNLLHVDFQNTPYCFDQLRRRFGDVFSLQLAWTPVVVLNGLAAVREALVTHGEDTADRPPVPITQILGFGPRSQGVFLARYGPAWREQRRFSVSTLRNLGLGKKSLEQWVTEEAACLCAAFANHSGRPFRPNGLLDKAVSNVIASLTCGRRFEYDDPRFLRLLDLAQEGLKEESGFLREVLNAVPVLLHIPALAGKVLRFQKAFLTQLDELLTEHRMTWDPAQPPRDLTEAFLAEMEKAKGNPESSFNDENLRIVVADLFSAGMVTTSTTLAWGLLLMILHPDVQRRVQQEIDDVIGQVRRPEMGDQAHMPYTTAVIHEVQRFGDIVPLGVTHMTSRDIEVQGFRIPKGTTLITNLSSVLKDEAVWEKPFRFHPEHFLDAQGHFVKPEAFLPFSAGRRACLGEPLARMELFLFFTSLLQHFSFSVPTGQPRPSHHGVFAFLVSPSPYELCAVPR
Reply text: 72.9

* * *

Molecular target: CYP2B6 (Homo sapiens, UniProt P20813)
Sequence (P20813 1-491): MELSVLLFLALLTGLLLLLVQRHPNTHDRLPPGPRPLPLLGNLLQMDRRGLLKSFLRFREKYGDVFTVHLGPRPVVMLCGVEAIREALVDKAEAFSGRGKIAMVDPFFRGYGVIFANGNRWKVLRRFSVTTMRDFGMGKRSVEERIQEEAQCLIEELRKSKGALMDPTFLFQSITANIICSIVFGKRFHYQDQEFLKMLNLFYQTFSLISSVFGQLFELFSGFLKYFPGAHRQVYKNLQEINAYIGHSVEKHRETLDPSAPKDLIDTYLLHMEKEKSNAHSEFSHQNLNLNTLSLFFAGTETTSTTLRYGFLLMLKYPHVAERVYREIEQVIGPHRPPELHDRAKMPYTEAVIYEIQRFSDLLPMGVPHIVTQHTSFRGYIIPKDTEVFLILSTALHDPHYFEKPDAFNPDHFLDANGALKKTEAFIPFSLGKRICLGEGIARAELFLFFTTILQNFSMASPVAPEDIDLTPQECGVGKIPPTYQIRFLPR
Test: CYP reversible inhibition in HLMs
Format: in vitro ADME
Conditions: Ki, bupropion; Ki = IC50/2
Endpoint Label: Ki
Express the reported value numerically, then name its unit.

Inquiry: Please give the measured Ki for this molecule: C=CC(=O)N1CCC([C@@H]2CCNc3c(C(N)=O)c(-c4ccc(Oc5ccccc5)cc4)nn32)CC1
Reply text: 60.5 µM
